Test system: MDAMB436
Test: cell proliferation (confluence) relative to DMSO control; higher = less growth inhibition
Conditions: 5 uM; 6 d
Assign Criterion met to entries whose cell proliferation meets or exceeds 80%; assign Criterion not met to the rest.

Answered examples (4):
CCCc1cc(C)[nH]c(=O)c1CNC(=O)c1cc(-c2ccnc(N3CCN(C)CC3)c2)cc2c1cnn2C(C)C ... Criterion met
CN(C)[C@H]1CN(C2CCc3cccc(F)c32)C[C@@H]1c1ccc(N2CCN(S(C)(=O)=O)CC2)cc1 (stereo not given in full) ... Criterion met
CC(C)Oc1ccc(-c2c[nH]cc2CN(C)CCN)cc1 ... Criterion not met
CCC(=O)N1CCOc2c(cc(-c3ccc(OC)c(OC)c3)cc2OC[C@H]2CCCN(C)C2)C1 ... Criterion not met

Q: hey, is cell proliferation for this one >= 80%? "O=C(/C=C/N1C[C@H]2C[C@@H]1CN2c1ccccn1)c1ccccc1O"
A: Criterion met

Q: hey, is cell proliferation for this one >= 80%? "COc1ccccc1C(=O)Nc1cc2c(cc1N1CCCC1)n(C)c(=O)n2C"
A: Criterion not met

Q: hey, is cell proliferation for this one >= 80%? "CCOC(=O)CCNc1cc(N2CCc3ccccc3CC2)nc(-c2ccccn2)n1"
A: Criterion not met

Q: hey, is cell proliferation for this one >= 80%? "CNCCN1CCC(OCc2ccccc2)CC1"
A: Criterion not met

---

Tested on: Hs578-T
Experiment: cell proliferation (confluence) relative to DMSO control; higher = less growth inhibition
Details: 5 uM; 6 d
readoutType: cell proliferation (%)
Give bare numbers, in %.

In the examples that follow, each entry is paired with its recorded cell proliferation.
COc1ccccc1C(=O)Nc1cc2c(cc1N1CCCC1)n(C)c(=O)n2C ... 98.4
COc1cc2c(NC3CCN(C(C)C)CC3)nc(C3CCCCC3)nc2cc1OCCCN1CCCC1 ... 98.1
Cc1cc(=O)n(C)c2cc(N3C(=O)CC[C@H](NS(=O)(=O)CC(C)C)[C@H]3c3ccc(Cl)cc3)ccc12 ... 98.8

# next compound below
Q: For the record "CCCc1cc(C)n(C)c(=O)c1CN(C)C(=O)c1cc(-c2ccc(N3CCN(C(C)C)CC3)nc2)cc2c1cnn2C(C)C" , what value of cell proliferation is listed for Hs578-T?
A: 97.9

---

Tested on: SUM159-PT
Experiment: cell proliferation (confluence) relative to DMSO control; higher = less growth inhibition
Settings: 5 uM; 6 d
readoutType: cell proliferation

Kindly give each listed record's cell proliferation.
1. COc1cc2c(cc1OCCCN1CCCC1)N=C(N)C21CCC1
2. CCCOc1ccn2c(C(C)=O)cc(-c3ccccc3S(C)(=O)=O)c2c1
3. CC(C)Oc1ccc(-c2c[nH]cc2CN(C)CCN)cc1
4. COc1ccccc1C(=O)Nc1cc2c(cc1N1CCCC1)n(C)c(=O)n2C
5. CCn1cc(-c2cccc(C(F)(F)F)c2)c2sc(C(=N)NC3CCS(=O)(=O)CC3)cc2c1=O
6. CCOC(=O)CCNc1cc(N2CCc3ccccc3CC2)nc(-c2ccccn2)n1

A:
1: 100%; 2: 100%; 3: 99.8%; 4: 100%; 5: 100%; 6: 94.7%

---

Test system: HCC1806
Assay: cell proliferation (confluence) relative to DMSO control; higher = less growth inhibition
Details: 5 uM; 6 d
Please go through the items and note down their cell proliferation.
Give bare numbers, in %.

In the examples that follow, each entry is paired with its recorded cell proliferation.
COc1ccc(CCc2nc3cc(-c4c(C)noc4C)ccc3n2C[C@H](C)N2CCOCC2)cc1Cl ... 82.7
CCCc1cc(C)n(C)c(=O)c1CN(C)C(=O)c1cc(-c2ccc(N3CCN(C(C)C)CC3)nc2)cc2c1cnn2C(C)C ... 99.9
O=C(c1ccc(C(=O)N2CCC(N3CCCC3)CC2)c(Nc2ccccc2)c1)N1CCC(N2CCCC2)CC1 ... 99.8
Cc1nnc2c3ccccc3c(N[C@@H](C)[C@H](c3ccccc3)N(C)C)nn12 [L-moses] ... 81.2
CCCc1cc(C)[nH]c(=O)c1CNC(=O)c1cc(-c2ccc(N3CCN(C(C)C)CC3)nc2)cc2c1cnn2C(C)C ... 92.4

Kindly give each listed record's cell proliferation.
1. CCC(=O)N1CCOc2c(cc(-c3ccc(OC)c(OC)c3)cc2OC[C@H]2CCCN(C)C2)C1
2. CC(C)Oc1ccc(-c2c[nH]cc2CN(C)CCN)cc1

A:
1. 79
2. 80.7

Kindly give each listed record's cell proliferation.
1. COc1cc2c(cc1OCCCN1CCCC1)N=C(N)C21CCC1
2. CC[C@H](C)n1cc(C)c2c(C(=O)NCc3c(C)cc(C)[nH]c3=O)cc(-c3ccc(N4CCNCC4)nc3)cc21

A:
[99.4, 99.8]

---

System: HCC1143
Experiment: cell proliferation (confluence) relative to DMSO control; higher = less growth inhibition
Conditions: 5 uM; 6 d
Please go through the items and note down their cell proliferation.
Numbers only, in %.

COc1cc2c(NC3CCN(C(C)C)CC3)nc(C3CCCCC3)nc2cc1OCCCN1CCCC1 ... 98.9

Kindly give each listed record's cell proliferation.
1. O=C(/C=C/N1C[C@H]2C[C@@H]1CN2c1ccccn1)c1ccccc1O
2. COc1ccccc1C(=O)Nc1cc2c(cc1N1CCCC1)n(C)c(=O)n2C
3. CN(C)[C@H]1CN(C2CCc3cccc(F)c32)C[C@@H]1c1ccc(N2CCN(S(C)(=O)=O)CC2)cc1 (some centres not stated)
4. Clc1cc2c(NC3CCCC3)nnc(-c3ccncc3)c2cc1Cl
5. Cc1nnc2c3ccccc3c(N[C@@H](C)[C@H](c3ccccc3)N(C)C)nn12

A:
99.3
98.3
99.2
99.1
97.1

Q: Give its cell proliferation value. Item: "CCCc1cc(C)[nH]c(=O)c1CNC(=O)c1cc(-c2ccc(N3CCN(C(C)C)CC3)nc2)cc2c1cnn2C(C)C"
A: 98.9

---

System: HCC153
Experiment: cell proliferation (confluence) relative to DMSO control; higher = less growth inhibition
Conditions: 5 uM; 6 d
Assign TRUE to entries whose cell proliferation meets or exceeds 60%; assign FALSE to the rest.

Answered examples (4):
CCCOc1ccn2c(C(C)=O)cc(-c3ccccc3S(C)(=O)=O)c2c1 ... FALSE
COc1ccccc1C(=O)Nc1cc2c(cc1N1CCCC1)n(C)c(=O)n2C ... TRUE
COc1cc2c(cc1OCCCN1CCCC1)N=C(N)C21CCC1 ... TRUE
Cc1cc(=O)n(C)c2cc(N3C(=O)CC[C@H](NS(=O)(=O)CC(C)C)[C@H]3c3ccc(Cl)cc3)ccc12 ... FALSE

Here is another molecule to look at.
Q: hey, is cell proliferation for this one >= 60%? "CCOC(=O)CCNc1cc(N2CCc3ccccc3CC2)nc(-c2ccccn2)n1"
A: FALSE

---

Please go through the items and note down their cell proliferation.
System: Hs578-T
Experiment: cell proliferation (confluence) relative to DMSO control; higher = less growth inhibition
Conditions: 5 uM; 6 d
Answers are plain numbers, in %.

Kindly give each listed record's cell proliferation.
1. COc1ccccc1S(=O)(=O)Nc1ccc2c(c1)CN(C)C(=O)N2
2. CCn1cc(-c2cccc(C(F)(F)F)c2)c2sc(C(=N)NC3CCS(=O)(=O)CC3)cc2c1=O
3. O=C([C@@H](Cc1cccc(C(F)(F)F)c1)NS(=O)(=O)c1cc(F)c2c(c1)CCNC2)N1CCCC1
4. COc1cc(C#N)ccc1S(=O)(=O)Nc1ccc2c(c1)cc(C)c(=O)n2C
5. CC(C)Oc1ccc(-c2c[nH]cc2CN(C)CCN)cc1

A:
[47.7, 99.5, 94.3, 97.3, 95.4]

Kindly give each listed record's cell proliferation.
1. CCN(C(=O)CO)[C@H]1CN(/C(=N\C#N)Nc2cccc(OC(F)F)c2)N=C1c1ccc(Cl)c(Cl)c1
2. CNCCN1CCC(OCc2ccccc2)CC1
3. O=C(/C=C/N1C[C@H]2C[C@@H]1CN2c1ccccn1)c1ccccc1O
4. CCOC(=O)CCNc1cc(N2CCc3ccccc3CC2)nc(-c2cccnc2)n1
5. CCCOc1ccn2c(C(C)=O)cc(-c3ccccc3S(C)(=O)=O)c2c1

A:
1. 98.7
2. 97.9
3. 98.2
4. 96.1
5. 97.6

---

Tested on: HCC38
Assay: cell proliferation (confluence) relative to DMSO control; higher = less growth inhibition
Settings: 5 uM; 6 d
Please go through the items and note down their cell proliferation.
Numbers only, in %.

O=C(NC[C@H](O)CN1CCc2ccccc2C1)c1ccnc(NC2CCC2)c1 ... 67.8
CCCc1cc(C)[nH]c(=O)c1CNC(=O)c1cc(-c2ccnc(N3CCN(C)CC3)c2)cc2c1cnn2C(C)C ... 99.7

Kindly give each listed record's cell proliferation.
1. CCCc1cc(C)[nH]c(=O)c1CNC(=O)c1cc(-c2ccc(N3CCN(C(C)C)CC3)nc2)cc2c1cnn2C(C)C
2. Cc1cc(=O)n(C)c2cc(N3C(=O)CC[C@H](NS(=O)(=O)CC(C)C)[C@H]3c3ccc(Cl)cc3)ccc12
3. O=C(NCC(=O)N1CCCC1)Nc1ccc2cnccc2c1
4. CCCOc1ccn2c(C(C)=O)cc(-c3ccccc3S(C)(=O)=O)c2c1
5. CN(C)[C@H]1CN(C2CCc3cccc(F)c32)C[C@@H]1c1ccc(N2CCN(S(C)(=O)=O)CC2)cc1 (some centres undefined)
6. COc1cc2c(NC3CCN(C(C)C)CC3)nc(C3CCCCC3)nc2cc1OCCCN1CCCC1
7. CC[C@H](C)n1cc(C)c2c(C(=O)NCc3c(C)cc(C)[nH]c3=O)cc(-c3ccc(N4CCNCC4)nc3)cc21

A:
99.9
99
99.9
99.1
99.7
99.9
99.8

Kindly give each listed record's cell proliferation.
1. COc1cc(-c2cn(C)c(=O)c3cnccc23)c(OC)cc1CN(C)C
2. O=C([C@@H](Cc1cccc(C(F)(F)F)c1)NS(=O)(=O)c1cc(F)c2c(c1)CCNC2)N1CCCC1

A:
1: 99.6; 2: 99.4

Kindly give each listed record's cell proliferation.
1. CCOC(=O)CCNc1cc(N2CCc3ccccc3CC2)nc(-c2cccnc2)n1
2. Cn1cc(CCn2cnc(-c3cnn(C)c3)c2-c2ccc(C#N)cc2)cn1
3. CC(C)N(CCCNC(=O)Nc1ccc(C(C)(C)C)cc1)C[C@H]1O[C@@H](n2cc(Br)c3c(N)ncnc32)[C@H](O)[C@@H]1O
4. COc1ccccc1C(=O)Nc1cc2c(cc1N1CCCC1)n(C)c(=O)n2C
5. Clc1cc2c(NC3CCCC3)nnc(-c3ccncc3)c2cc1Cl
6. CCCc1cc(C)n(C)c(=O)c1CN(C)C(=O)c1cc(-c2ccc(N3CCN(C(C)C)CC3)nc2)cc2c1cnn2C(C)C
7. CC(C)Oc1ccc(-c2c[nH]cc2CN(C)CCO)cc1
8. COc1c(C)cc(NC(=O)c2nn(Cc3ccc(F)cc3)c3c2CN(C(=O)c2ccc[nH]2)C[C@]3(C)C(N)=O)cc1C

A:
1. 99.3
2. 99.4
3. 99.9
4. 99.7
5. 99.6
6. 99.8
7. 99.6
8. 99.3
